Test system: human PKK mRNA
experiment: Antisense inhibition of human PKK mRNA in HepaRG cells, 1,000 nM, MOE/deoxy/cEt oligonucleotides (Example 3)
Format: cell-based
experimental conditions: Table 20; HepaRG cells, electroporation with 1,000 nM antisense oligonucleotide, approximately 24 hours; PKK mRNA by RT-PCR (RTS3454), relative to untreated control cells
Strand notation (5' to 3'): a small letter for the sugar, then the base; units joined by * are phosphorothioate-linked, units joined directly phosphodiester-linked; [ ] holds rarer units or linkages, { } end groups; capitals alone tell only the bases. e = 2'-O-(2-methoxyethyl) (MOE); k = constrained ethyl (cEt); [5mC] = 5-methylcytosine; d = 2'-deoxy (DNA)
% inhibition: recorded values
readout name: % inhibition (%)

[
  {
    "substance": "547902 (eA*e[5mC]*kT*dG*dT*dA*d[5mC]*dT*dT*dT*dA*dA*dT*kA*kG*eG; antisense) [compound 547902]",
    "readout number": 20
  },
  {
    "substance": "547851 (antisense eT*eA*kA*dA*dT*dG*dT*d[5mC]*dT*d[5mC]*dG*dA*dT*kG*kG*e[5mC]) [compound 547851]",
    "readout number": 93
  },
  {
    "substance": "547877 (antisense eA*eA*k[5mC]*dA*d[5mC]*dT*dG*d[5mC]*dT*dA*dA*d[5mC]*d[5mC]*kT*kT*eA) [compound 547877]",
    "readout number": 81
  },
  {
    "substance": "547856 (antisense e[5mC]*eA*kT*dA*dT*d[5mC]*dA*dA*d[5mC]*dT*d[5mC]*d[5mC]*dT*kT*kT*eA) [compound 547856]",
    "readout number": 93
  },
  {
    "substance": "547892 (e[5mC]*eA*kA*dT*dT*dG*dT*dT*d[5mC]*d[5mC]*dG*dG*dT*kA*k[5mC]*eT; antisense) [compound 547892]",
    "readout number": 29
  },
  {
    "substance": "547869 (antisense eA*eA*k[5mC]*d[5mC]*dT*dT*dA*dG*dA*d[5mC]*dA*d[5mC]*dA*kT*kT*eA) [compound 547869]",
    "readout number": 45
  }
]

* * *

Tested on: human PKK mRNA
experiment: Dose-dependent antisense inhibition of human PKK in HepaRG cells, 0.11-3.00 uM (Example 6)
Format: cell-based
experimental conditions: electroporation, 0.33 μM, approx. 16 hours, relative to untreated control cells
Strand notation (5' to 3'): a small letter for the sugar, then the base; units joined by * are phosphorothioate-linked, units joined directly phosphodiester-linked; [ ] holds rarer units or linkages, { } end groups; capitals alone tell only the bases. e = 2'-O-(2-methoxyethyl) (MOE); k = constrained ethyl (cEt); [5mC] = 5-methylcytosine; d = 2'-deoxy (DNA)
percent inhibition of PKK mRNA, 0.33 μM: recorded values
readout name: percent inhibition of PKK mRNA, 0.33 μM (%)

[
  {
    "substance": "548486 (e[5mC]*eG*kT*dG*dG*dT*dT*dA*dG*d[5mC]*d[5mC]*dT*dG*kA*k[5mC]*eA; antisense) [compound 548486]",
    "readout name": "percent inhibition of PKK mRNA, 0.33 μM",
    "reading unit": "%",
    "readout number": 48
  },
  {
    "substance": "548570 (eA*eT*kG*d[5mC]*d[5mC]*dT*dT*dG*dT*dG*d[5mC]*d[5mC]*dT*kA*kT*eT; antisense) [compound 548570]",
    "readout name": "percent inhibition of PKK mRNA, 0.33 μM",
    "reading unit": "%",
    "readout number": 40
  },
  {
    "substance": "548547 (antisense eG*eT*kG*d[5mC]*dG*dA*dT*dT*dA*dA*dG*d[5mC]*d[5mC]*k[5mC]*k[5mC]*eA) [compound 548547]",
    "readout name": "percent inhibition of PKK mRNA, 0.33 μM",
    "reading unit": "%",
    "readout number": 41
  },
  {
    "substance": "548424 (antisense e[5mC]*eA*kG*dT*dA*dT*d[5mC]*dA*d[5mC]*dT*dG*dT*d[5mC]*k[5mC]*kT*eA) [compound 548424]",
    "readout name": "percent inhibition of PKK mRNA, 0.33 μM",
    "reading unit": "%",
    "readout number": 67
  },
  {
    "substance": "548170 (eA*eG*kT*dT*dG*d[5mC]*dG*dA*d[5mC]*d[5mC]*dT*d[5mC]*dG*k[5mC]*kA*eT; antisense) [compound 548170]",
    "readout name": "percent inhibition of PKK mRNA, 0.33 μM",
    "reading unit": "%",
    "readout number": 8
  },
  {
    "substance": "548109 (antisense eG*e[5mC]*kA*dT*d[5mC]*dT*dG*dA*dG*d[5mC]*dT*dT*dT*kT*k[5mC]*e[5mC]) [compound 548109]",
    "readout name": "percent inhibition of PKK mRNA, 0.33 μM",
    "reading unit": "%",
    "readout number": 92
  }
]
